Each recorded value in this set is attributed to PubChem BioAssay AID2060894.

- Test system: K12877-001-R-J1-PDC complex spheroid viability
- experimental-protocol: Anticancer human tumor K12877-001-R-J1-PDC patient-derived lung adenocarcinoma cell line growth inhibition [RAS]
- experimental-conditions: second compound 0.000949 µM; first compound 3.16 µM; stronger effect = lower value
observable: viability, T/C (%)
Entry rule: numbers only, all in %.

[Q] # viability, T/C lookup, item Cc1nc(N2CCC3(CC2)COC(C)C3N)c(CO)nc1Sc1ccnc(N)c1Cl (stereo unspecified) + CCn1c(-c2cc(N3CCN(C)CC3)cnc2C(C)OC)c2c3cc(ccc31)-c1csc(n1)CC(NC(=O)C1CC1C)C(=O)N1CCCC(N1)C(=O)OCC(C)(C)C2
[A] 66.7

[Q] # iterate: CC(C)NCC(C(=O)N1CCN(c2ncnc3c2C(C)CC3O)CC1)c1ccc(Cl)cc1 (stereo unspecified) + CCn1c(-c2cccnc2C(C)OC)c2c3cc(ccc31)N1CCOC(CC(NC(=O)C(C(C)C)N(C)C(=O)C3(F)CCN(C(=O)C#CC(C)(C)N(C)C)CC3)C(=O)N3CCCC(N3)C(=O)OCC(C)(C)C2)C1
[A] 26.7

[Q] Further, for CC(Nc1ccc2c(c1)OCCn1cc(N3C(=O)OCC3C(F)F)nc1-2)C(N)=O (stereo unspecified) + CCn1c(-c2cccnc2C(C)OC)c2c3cc(ccc31)N1CCOC(CC(NC(=O)C(C(C)C)N(C)C(=O)C3(F)CCN(C(=O)C#CC(C)(C)N(C)C)CC3)C(=O)N3CCCC(N3)C(=O)OCC(C)(C)C2)C1 ?
[A] 37.5

[Q] For CC(C)NCC(C(=O)N1CCN(c2ncnc3c2C(C)CC3O)CC1)c1ccc(Cl)cc1 (stereo unspecified) + CCn1c(-c2cc(N3CCN(C)CC3)cnc2C(C)OC)c2c3cc(ccc31)-c1csc(n1)CC(NC(=O)C1CC1C)C(=O)N1CCCC(N1)C(=O)OCC(C)(C)C2 then?
[A] 69.3

[Q] And what about the molecule CC1(O)CCCC1n1c(=O)c(C(F)F)cc2cnc(NC3CCN(S(C)(=O)=O)CC3)nc21 (stereo unspecified) + CCn1c(-c2cc(N3CCN(C)CC3)cnc2C(C)OC)c2c3cc(ccc31)-c1csc(n1)CC(NC(=O)C1CC1C)C(=O)N1CCCC(N1)C(=O)OCC(C)(C)C2 ?
[A] 64.5

[Q] Same read-out for C[C@@H](NC(=O)c1ncnc(N)c1Cl)c1ncc(C(=O)Nc2cc(C(F)(F)F)c(Cl)cn2)s1 + CCn1c(-c2cccnc2C(C)OC)c2c3cc(ccc31)N1CCOC(CC(NC(=O)C(C(C)C)N(C)C(=O)C3(F)CCN(C(=O)C#CC(C)(C)N(C)C)CC3)C(=O)N3CCCC(N3)C(=O)OCC(C)(C)C2)C1 ?
[A] 74.4

====

- Test system: K12877-001-R-J1-PDC complex spheroid viability
- experimental-protocol: Anticancer human tumor K12877-001-R-J1-PDC cell line growth inhibition [RAS];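 note: spheroids exposed to agents for one week before readout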
- experimental-conditions: curve of first compound; second compound 0.000949 µM
pIC50: −log10 of the molar value.
observable: pIC50

[Q] # returns recorded pIC50 (system: K12877-001-R-J1-PDC complex spheroid viability) for CC(Nc1ccc2c(c1)OCCn1cc(N3C(=O)OCC3C(F)F)nc1-2)C(N)=O (stereo not drawn) + CCn1c(-c2cccnc2C(C)OC)c2c3cc(ccc31)N1CCOC(CC(NC(=O)C(C(C)C)N(C)C(=O)C3(F)CCN(C(=O)C#CC(C)(C)N(C)C)CC3)C(=O)N3CCCC(N3)C(=O)OCC(C)(C)C2)C1
[A] 6.03

[Q] Now give it for C=CC(=O)N1CCN(c2nc(OCC3CCCN3C)nc3c(F)c(-c4nc(N)cc(C)c4C(F)(F)F)c(Cl)cc23)C(C)C1 (stereo not drawn) + CCn1c(-c2cccnc2C(C)OC)c2c3cc(ccc31)N1CCOC(CC(NC(=O)C(C(C)C)N(C)C(=O)C3(F)CCN(C(=O)C#CC(C)(C)N(C)C)CC3)C(=O)N3CCCC(N3)C(=O)OCC(C)(C)C2)C1 too.
[A] < 6.00

[Q] Same question for Cc1nc(N2CCC3(CC2)COC(C)C3N)c(CO)nc1Sc1ccnc(N)c1Cl (stereo not drawn) + CCn1c(-c2cc(N3CCN(C)CC3)cnc2C(C)OC)c2c3cc(ccc31)-c1csc(n1)CC(NC(=O)C1CC1C)C(=O)N1CCCC(N1)C(=O)OCC(C)(C)C2 please.
[A] < 5.00

====

- Tested on: K12877-001-R-J1-PDC complex spheroid viability
- experimental-protocol: Anticancer human tumor K12877-001-R-J1-PDC cell line growth inhibition [RAS];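 note: spheroids exposed to agents for one week before readout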;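 for viability, T/C: tumour cells co-cultured with HUVEC and mesenchymal stem cells in spheroids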
- experimental-conditions: second compound 0.00949 µM; first compound 1 µM; stronger effect = lower value
observable: viability, T/C (%)
Reply with just the number (in %).

[Q] Which viability, T/C reading was recorded for the compound NC1c2ccccc2OC12CCN(c1cnc3c(N4CCCc5ncccc54)n[nH]c3n1)CC2 (stereo not drawn) + CCn1c(-c2cc(N3CCN(C)CC3)cnc2C(C)OC)c2c3cc(ccc31)-c1csc(n1)CC(NC(=O)C1CC1C)C(=O)N1CCCC(N1)C(=O)OCC(C)(C)C2 ?
[A] 64.9

[Q] And C=CC(=O)Nc1cc(Nc2nccc(-c3cn(C)c4ccccc34)n2)c(OC)cc1N(C)CCN(C)C + CCn1c(-c2cc(N3CCN(C)CC3)cnc2C(C)OC)c2c3cc(ccc31)-c1csc(n1)CC(NC(=O)C1CC1C)C(=O)N1CCCC(N1)C(=O)OCC(C)(C)C2 ?
[A] 73

[Q] Now give it for CC1(O)CCCC1n1c(=O)c(C(F)F)cc2cnc(NC3CCN(S(C)(=O)=O)CC3)nc21 (stereo not drawn) + CCn1c(-c2cccnc2C(C)OC)c2c3cc(ccc31)N1CCOC(CC(NC(=O)C(C(C)C)N(C)C(=O)C3(F)CCN(C(=O)C#CC(C)(C)N(C)C)CC3)C(=O)N3CCCC(N3)C(=O)OCC(C)(C)C2)C1 too.
[A] 36.8

[Q] Proceed to CCN1CCN(Cc2ccc(Nc3ncc(F)c(-c4cc(F)c5nc(C)n(C(C)C)c5c4)n3)nc2)CC1 + CCn1c(-c2cccnc2C(C)OC)c2c3cc(ccc31)N1CCOC(CC(NC(=O)C(C(C)C)N(C)C(=O)C3(F)CCN(C(=O)C#CC(C)(C)N(C)C)CC3)C(=O)N3CCCC(N3)C(=O)OCC(C)(C)C2)C1
[A] 34

[Q] Field entry: O=C(c1ccc(F)c(F)c1Nc1ccc(I)cc1F)N1CC(O)([C@@H]2CCCCN2)C1 + CCn1c(-c2cc(N3CCN(C)CC3)cnc2C(C)OC)c2c3cc(ccc31)-c1csc(n1)CC(NC(=O)C1CC1C)C(=O)N1CCCC(N1)C(=O)OCC(C)(C)C2
[A] 53.5

[Q] Note, next up: Cc1nc(N2CCC3(CC2)COC(C)C3N)c(CO)nc1Sc1ccnc(N)c1Cl (stereo not drawn) + CCn1c(-c2cc(N3CCN(C)CC3)cnc2C(C)OC)c2c3cc(ccc31)-c1csc(n1)CC(NC(=O)C1CC1C)C(=O)N1CCCC(N1)C(=O)OCC(C)(C)C2
[A] 73.4

[Q] Next: C=CC(=O)Nc1cc(Nc2nccc(-c3cn(C)c4ccccc34)n2)c(OC)cc1N(C)CCN(C)C + CCn1c(-c2cccnc2C(C)OC)c2c3cc(ccc31)N1CCOC(CC(NC(=O)C(C(C)C)N(C)C(=O)C3(F)CCN(C(=O)C#CC(C)(C)N(C)C)CC3)C(=O)N3CCCC(N3)C(=O)OCC(C)(C)C2)C1
[A] 62.7

[Q] Same again, this time with O=C(c1ccc(F)c(F)c1Nc1ccc(I)cc1F)N1CC(O)([C@@H]2CCCCN2)C1 + CCn1c(-c2cccnc2C(C)OC)c2c3cc(ccc31)N1CCOC(CC(NC(=O)C(C(C)C)N(C)C(=O)C3(F)CCN(C(=O)C#CC(C)(C)N(C)C)CC3)C(=O)N3CCCC(N3)C(=O)OCC(C)(C)C2)C1
[A] 32.7

====

- Tested on: K12877-001-R-J1-PDC complex spheroid viability
- experimental-protocol: Anticancer human tumor K12877-001-R-J1-PDC cell line growth inhibition [RAS];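 note: spheroids exposed to agents for one week before readout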;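 for viability, T/C: tumour cells co-cultured with HUVEC and mesenchymal stem cells in spheroids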
- experimental-conditions: second compound 1 µM; first compound 10 µM; stronger effect = lower value
I'd appreciate it if you could supply viability, T/C values for the items below.
Give the quantity in %, number only.

[Q] Observed viability, T/C on K12877-001-R-J1-PDC complex spheroid viability for CC1(O)CCCC1n1c(=O)c(C(F)F)cc2cnc(NC3CCN(S(C)(=O)=O)CC3)nc21 (stereo not given) + C=CC(=O)N1CCN(c2nc(OCC3CCCN3C)nc3c(F)c(-c4nc(N)cc(C)c4C(F)(F)F)c(Cl)cc23)C(C)C1 , please.
[A] 2.22

[Q] Input C[C@@H](NC(=O)c1ncnc(N)c1Cl)c1ncc(C(=O)Nc2cc(C(F)(F)F)c(Cl)cn2)s1 + C#Cc1c(F)ccc2cc(O)cc(-c3ncc4c(N5CC6CCC(C5)N6)nc(OCC56CCCN5CC(F)C6)nc4c3F)c12
[A] 98.9

[Q] Proceed to CC(Nc1ccc2c(c1)OCCn1cc(N3C(=O)OCC3C(F)F)nc1-2)C(N)=O (stereo not given) + C=CC(=O)N1CCN(c2nc(OCC3CCCN3C)nc3c(F)c(-c4nc(N)cc(C)c4C(F)(F)F)c(Cl)cc23)C(C)C1
[A] 19.6

[Q] Try this compound too: CCC(CC)c1cc(NC2CCC(N)C2)n2nccc2n1 (stereo not given) + C=CC(=O)N1CCN(c2nc(OCC3CCCN3C)nc3c(F)c(-c4nc(N)cc(C)c4C(F)(F)F)c(Cl)cc23)C(C)C1
[A] 1.06

[Q] What do we get for CC(=O)OC12COC1CC(O)C1(C)C(=O)C(O)C3=C(C)C(OC(=O)C(O)C(NC(=O)OC(C)(C)C)c4ccccc4)CC(O)(C(OC(=O)c4ccccc4)C21)C3(C)C (stereo not given) + C=CC(=O)N1CCN(c2nc(OCC3CCCN3C)nc3c(F)c(-c4nc(N)cc(C)c4C(F)(F)F)c(Cl)cc23)C(C)C1 ?
[A] 11
